Assay: budding yeast growth changes without added modifier – OD600, strain BY4716, 24 h, basal condition, primary screen (AID 1173)
Conditions: S. cerevisiae BY4716 growth, OD600, 24 h; higher = more signal, called active from +8 up or from −8 down
Classify by measured z-score: Y if it is equal to or exceeds -0.5, N if it is smaller.

Use these answered entries as a reference point.
1) COCCOC(=O)N1C(=O)[C@@]2(c3cc(C#CCC(C(=O)OC)C(=O)OC)ccc31)[C@H](c1ccccc1OCCO)N1[C@H](c3ccccc3)[C@H](c3ccccc3)OC(=O)[C@H]1[C@@H]2C(=O)Nc1nc2ccccc2s1 : N
2) C=CC[C@@]1(C(=O)NCCN2CCOCC2)N=C(c2ccc(OCCCO)cc2)O[C@@H]1c1ccccc1CN=[N+]=[N-] : N
3) C=CCNC(=O)[C@@H]1[C@H]2C(=O)O[C@H](c3ccccc3)[C@H](c3ccccc3)N2[C@H](c2ccccc2OCCO)[C@@]12C(=O)N(C(=O)OCCOC)c1ccc(C#CCC(C(=O)OC)C(=O)OC)cc12 : Y
4) O=C1O[C@@H](c2ccccc2)[C@@H](c2ccccc2)N2[C@@H](c3ccc(O)cc3)[C@]3(C(=O)Nc4ccccc43)[C@@H](C(=O)N3CCCCCCC3)[C@H]12 : Y

Could you now look at the following compound, please?
Q: Is z-score at least -0.5? Consider CCCC[C@@H]1C[C@H]1[C@@H](NC(=O)c1ccccc1)c1ccc(-c2ccccc2)cc1
Result: N
